What Activity was measured for each of the following?
- System: K562
- Assay Text: Induction of apoptosis in human K562 cells assessed as non-viable necrotic cells at 250 nM after 48 hrs by annexin-V FITC and propidium iodide staining-based FACS analysis
- Assay type: functional
Give just the number in %; leave the unit off.

[ask] Give the measured Activity for `CN(C)CCCNC(=O)CCNC(=O)c1cc(NC(=O)c2cc(NC(=O)c3cc(NC(=O)c4cc(NC(=O)[C@@H](CCNC(=O)CCCc5ccc(N(CCCl)CCCl)cc5)NC(=O)c5nc(NC(=O)CCNC(=O)c6nc(NC(=O)c7nccn7C)cn6C)cn5C)cn4C)cn3C)cn2C)cn1C`
[reply] 1.1

[ask] Give the measured Activity for CC(=O)Nc1cn(C)c(C(=O)Nc2cn(C)c(C(=O)NCCC(=O)Nc3cn(C)c(C(=O)NCCCC(=O)Nc4cc(C(=O)Nc5cn(C)c(C(=O)Nc6ccc7[nH]c(C(=O)N8CC(CCl)c9c8cc(O)c8ccccc98)cc7c6)n5)n(C)c4)n3)n2)n1 (centres undefined)
[reply] 2.58

[ask] Give the measured Activity for `CN(C)CCCNC(=O)CCNC(=O)c1cc(NC(=O)c2cc(NC(=O)c3cc(NC(=O)c4cc(NC(=O)[C@H](CCNC(=O)CCCc5ccc(N(CCCl)CCCl)cc5)NC(=O)c5nc(NC(=O)CCNC(=O)c6nc(NC(=O)c7nccn7C)cn6C)cn5C)cn4C)cn3C)cn2C)cn1C`
[reply] 1.39

[ask] Give the measured Activity for `CN(C)CCCNC(=O)CCNC(=O)c1cc(NC(=O)c2cc(NC(=O)c3cc(NC(=O)c4nc(NC(=O)[C@@H](CCNC(=O)CCCc5ccc(N(CCCl)CCCl)cc5)NC(=O)c5cc(NC(=O)c6cc(NC(=O)CCNC(=O)c7nccn7C)cn6C)cn5C)cn4C)cn3C)cn2C)cn1C`
[reply] 3.69
